Test system: 633275-114-R-J1-PDC complex spheroids, viability;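 note: spheroids exposed to the agents for seven days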
Assay: Anticancer human tumor 633275-114-R-J1-PDC patient-derived endometrial adenocarcinoma cell line growth inhibition [GQUAD]
Conditions: curve of first compound; second compound 3.16 µM
pIC50: −log10 of the molar value.
# pIC50 >= 6 gives True, anything below gives False

compound="CCc1c2c(nc3ccc(O)cc13)-c1cc3c(c(=O)n1C2)COC(=O)[C@]3(O)CC + Cc1[nH]c2ccc(F)cc2c1-c1nc2c3cccnc3c3ncccc3c2[nH]1" group=True
compound="C=CC(=O)N1CCN(c2nc(=O)n(-c3c(C)ccnc3C(C)C)c3nc(-c4c(O)cccc4F)c(F)cc23)C(C)C1 (stereo unspecified) + Cc1cnc(CNC(=O)c2c(=O)c3ccc(N4CCCN(C)CC4)nc3n3c2sc2ccccc23)cn1" group=True
compound="O=C(NO)c1cnc(N2CCN(S(=O)(=O)c3ccc4ccccc4c3)CC2)nc1 + Cc1cnc(CNC(=O)c2c(=O)c3ccc(N4CCCN(C)CC4)nc3n3c2sc2ccccc23)cn1" group=True
compound="CC1COCCN1c1cc(-c2ccnn2C)c2ccnc(-c3ccn[nH]3)c2n1 (stereo unspecified) + Cc1[nH]c2ccc(F)cc2c1-c1nc2c3cccnc3c3ncccc3c2[nH]1" group=True
compound="Nc1ccn(C2OC(CO)C(O)C2(F)F)c(=O)n1 (stereo unspecified) + CN(C)c1ccc(Nc2c3ccc(NC(=O)CCN4CCCC4)cc3nc3cc(NC(=O)CCN4CCCC4)ccc23)cc1" group=True
compound="O=C(c1cc(Cc2n[nH]c(=O)c3ccccc23)ccc1F)N1CCN(C(=O)C2CC2)CC1 + Cc1cnc(CNC(=O)c2c(=O)c3ccc(N4CCCN(C)CC4)nc3n3c2sc2ccccc23)cn1" group=True
compound="C#Cc1c(F)ccc2cc(O)cc(-c3ncc4c(N5CC6CCC(C5)N6)nc(OCC56CCCN5CC(F)C6)nc4c3F)c12 (stereo unspecified) + Cc1cnc(CNC(=O)c2c(=O)c3ccc(N4CCCN(C)CC4)nc3n3c2sc2ccccc23)cn1" group=True
compound="Cc1cccc(N(C)C(=O)C2C(O)CCN2c2nc(C)cc(C(F)(F)F)c2C#N)c1 (stereo unspecified) + CN(C)c1ccc(Nc2c3ccc(NC(=O)CCN4CCCC4)cc3nc3cc(NC(=O)CCN4CCCC4)ccc23)cc1" group=False
compound="Cc1cccc(N(C)C(=O)C2C(O)CCN2c2nc(C)cc(C(F)(F)F)c2C#N)c1 (stereo unspecified) + Cc1[nH]c2ccc(F)cc2c1-c1nc2c3cccnc3c3ncccc3c2[nH]1" group=False
compound="CCCS(=O)(=O)Nc1ccc(F)c(C(=O)c2c[nH]c3ncc(-c4ccc(Cl)cc4)cc23)c1F + Cc1cnc(CNC(=O)c2c(=O)c3ccc(N4CCCN(C)CC4)nc3n3c2sc2ccccc23)cn1" group=True
compound="C#Cc1c(F)ccc2cc(O)cc(-c3ncc4c(N5CC6CCC(C5)N6)nc(OCC56CCCN5CC(F)C6)nc4c3F)c12 (stereo unspecified) + Cc1[nH]c2ccc(F)cc2c1-c1nc2c3cccnc3c3ncccc3c2[nH]1" group=False
compound="Cc1[nH]c2ccccc2c1CCNCc1ccc(/C=C/C(=O)NO)cc1 + CN(C)c1ccc(Nc2c3ccc(NC(=O)CCN4CCCC4)cc3nc3cc(NC(=O)CCN4CCCC4)ccc23)cc1" group=True
compound="CC1COCCN1c1cc(C2(O)CC3CCC(C2)O3)c2cnn(-c3ccn[nH]3)c2n1 (stereo unspecified) + Cc1[nH]c2ccc(F)cc2c1-c1nc2c3cccnc3c3ncccc3c2[nH]1" group=True
compound="CC1COCCN1c1cc(C2(S(C)(=N)=O)CC2)nc(-c2ccnc3[nH]ccc23)n1 (stereo unspecified) + Cc1cnc(CNC(=O)c2c(=O)c3ccc(N4CCCN(C)CC4)nc3n3c2sc2ccccc23)cn1" group=True
compound="CC1COCCN1c1cc(-c2ccnn2C)c2ccnc(-c3ccn[nH]3)c2n1 (stereo unspecified) + Cc1cnc(CNC(=O)c2c(=O)c3ccc(N4CCCN(C)CC4)nc3n3c2sc2ccccc23)cn1" group=True
compound="COc1cccc2c1C(=O)c1c(O)c3c(c(O)c1C2=O)CC(O)(C(=O)CO)CC3OC1CC(N)C(O)C(C)O1 (stereo unspecified) + Cc1cnc(CNC(=O)c2c(=O)c3ccc(N4CCCN(C)CC4)nc3n3c2sc2ccccc23)cn1" group=True
compound="CCCS(=O)(=O)Nc1ccc(F)c(C(=O)c2c[nH]c3ncc(-c4ccc(Cl)cc4)cc23)c1F + CN(C)c1ccc(Nc2c3ccc(NC(=O)CCN4CCCC4)cc3nc3cc(NC(=O)CCN4CCCC4)ccc23)cc1" group=False
compound="COc1ncnc(C2CC2)c1-c1ncc2cnn(Cc3ccc(-c4nc(C(F)(F)F)cn4C(C)C)cc3)c2n1 + CN(C)c1ccc(Nc2c3ccc(NC(=O)CCN4CCCC4)cc3nc3cc(NC(=O)CCN4CCCC4)ccc23)cc1" group=False
compound="CCCS(=O)(=O)Nc1ccc(F)c(C(=O)c2c[nH]c3ncc(-c4ccc(Cl)cc4)cc23)c1F + Cc1[nH]c2ccc(F)cc2c1-c1nc2c3cccnc3c3ncccc3c2[nH]1" group=False
